Hey, just so you know, these numbers are from patent US4904590A.

Test: Acute toxicity in mice, intraperitoneal injection
Conditions: mouse, in vivo, ip
Assignment: determine reported LD50 for the given compounds.

Request: Dear colleague, please send me the reported LD50 for C=C1CCC(Cl)C(C)(C)C1CC12OC(C)(C)C(Cl)CC1(Cl)C(=O)c1c(cc(O)c(C)c1O)C2=O (stereo not shown) [A80915A] when you can.
Response: 212 mg/kg

Request: For the compound Cc1c(O)cc2c(c1O)C(=O)[C@@]1(Cl)C[C@@H](Cl)C(C)(C)O[C@@]1(C[C@H]1C(C)(C)[C@@H](Cl)CC[C@]1(C)O)C2=O [A80915C] , give its measured LD50 value.
Response: > 300 mg/kg

Request: Note down LD50 recorded for C=C1CCC(Cl)C(C)(C)C1CC12OC(C)(C)C(Cl)CC1(Cl)C(=O)c1c(O)c(C)c([O-])c([N+]#N)c1C2=O (stereo not shown) [A80915B]
Response: 75 mg/kg

Request: Consider the compound Cc1c([O-])c([N+]#N)c2c(c1O)C(=O)[C@@]1(Cl)C[C@@H](Cl)C(C)(C)O[C@@]1(C[C@H]1C(C)(C)[C@@H](Cl)CC[C@]1(C)O)C2=O [A80915D] . State its measured LD50.
Response: 11.8 mg/kg
